Each item that follows carries a reported half-life.
# Run Parameters: rat; liver microsomes; pH 7.4; 15.0 min; 1.0 µM

As a guide, the following entries are already answered.
Exercise: For the compound O=C(O)c1ccccc1-c1ccc(/C=c2\sc3nc4cc(Br)cnc4n3c2=O)o1 , give its reported half-life.
Solution: 22 min

Exercise: Tell me its half-life given Cc1nn(CCc2nc(-c3ccccc3F)cs2)c2[nH]c(=O)cc(C(F)(F)F)c12 as the entry.
Solution: 9.3 min

Exercise: For the compound CNc1oc(-c2ccccc2-c2ccccc2)nc1C#N , give its reported half-life.
Solution: 5.8 min

Exercise: Give a short answer stating reported half-life for CC[C@@]1(O)C(=O)OCc2c1cc1n(c2=O)Cc2c-1nc1cc(F)c(C)c3c1c2[C@@H](N)CC3 .
Solution: > 30 min

Exercise: Tell me its half-life given COc1ccc(OC)c(CNc2ncnc3onc(C)c23)c1 as the entry.
Solution: 5.68 min

Exercise: Annotate the compound COCCn1ccc2c(C3=CCOCC3)nc(-c3ccc4c(c3)CNC4=O)cc21 with its measured half-life.
Solution: 9.18 min

Exercise: Identify the reported half-life for the following entry. CC(=O)NCc1ccc(-c2csc(Nc3cc(C)cc(C)c3)n2)o1
Solution: > 30 min

Exercise: In one line, give reported half-life of the entry N#Cc1cc(-c2nc(Nc3ccc(F)c(F)c3)c3ccccc3n2)ccn1 .
Solution: > 30 min

Others:
Exercise: Give a short answer stating reported half-life for Cc1cnc(N2CCC(C(N)=O)CC2)nc1-c1cccc(N(C)C)c1 .
Solution: 8.45 min

Exercise: Give the measured half-life for CCCC1=Nc2cc(C(=O)NC3CCCCC3)ccc2Sc2ccc(C)cc21
Solution: 1.48 min

Exercise: Report measured half-life; entry is Cc1cc2ccccc2n1CC(=O)NC1CCCCC1
Solution: 2.8 min

Exercise: Could you please provide reported half-life for CO[C@@H]1/C=C\O[C@@]2(C)Oc3c(C)c(O)c4c(c3C2=O)C(=N[C@H]2CC[C@H](O)O[C@@H]2C)C=C(NC(=O)/C(C)=C\C(=O)[C@@H]2C[C@@H]2[C@@H](O)[C@H](C)[C@@H](O)[C@H](C)[C@H](OC(C)=O)[C@@H]1C)C4=O ? Thanks!
Solution: 9.93 min

Exercise: Fill in reported half-life for this entry: CCCCCn1c(=O)[nH]c2cc(C(=O)NCCCN3CCC(C)CC3)ccc2c1=O
Solution: 16 min

Exercise: Hello, please tell me recorded half-life for this one: O=S(=O)(Nc1ccccc1)c1ccc(NCc2ccc(Br)cc2O)cc1
Solution: 2 min

Exercise: Name the recorded half-life of the compound listed here: COc1cccc(CNc2ccc(S(=O)(=O)Nc3ccc(N4CCNCC4)cc3)cc2)c1O
Solution: > 30 min

Exercise: Look up half-life of Cc1ccc(S(=O)(=O)Nc2cnccc2C(=O)Nc2ccc(N3CCOCC3)cc2)cc1 and report it.
Solution: 23 min

Exercise: Return half-life for the following compound: CN1CCN(c2ccc(-c3cccc(CN4CCOCC4)c3)cc2NC(=O)c2c[nH]c(=O)cc2C(F)(F)F)CC1
Solution: > 30 min
